Data origin, for the record: paper PMC8041284

Target: BTK (Homo sapiens, UniProt Q06187)
Sequence (Q06187 402-655 limits assumed): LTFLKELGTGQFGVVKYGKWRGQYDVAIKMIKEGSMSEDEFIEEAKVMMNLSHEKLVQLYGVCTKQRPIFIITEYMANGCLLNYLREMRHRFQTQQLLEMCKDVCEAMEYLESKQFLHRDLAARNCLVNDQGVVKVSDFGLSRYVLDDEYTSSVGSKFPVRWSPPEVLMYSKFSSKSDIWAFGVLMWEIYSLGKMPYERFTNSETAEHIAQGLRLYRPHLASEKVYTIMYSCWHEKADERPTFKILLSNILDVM
Experiment: biochemical
Conditions: read-out: BTK inhibition (%), 0.75 uM BTK, […] probe 3l, 15 min preincubation
reported metric: inhibition at 10 µM (%)

INSERT INTO assay_data (molecule, reported_metric, recorded_value) VALUES
  ('COc1cccc(/C=N/N(C(=O)C(F)(F)F)c2ccc(C)cc2C)c1', 'inhibition at 10 µM', 13.9),
  ('CC(=O)OC(CC(=O)O)C[N+](C)(C)C (centres unmarked)', 'inhibition at 10 µM', -18.5),
  ('C[C@@H]1O[C@@H](OC[C@H]2O[C@@H](Oc3c(-c4ccc(O)c(O)c4)oc4cc(O)cc(O)c4c3=O)[C@H](O)[C@@H](O)[C@@H]2O)[C@H](O)[C@H](O)[C@H]1O', 'inhibition at 10 µM', -2.1),
  ('C=CC(=O)Nc1cc(Nc2nccc(-n3cc(CN(C)C)c(-c4ccccc4)n3)n2)c(OC)cc1N1CCOCC1', 'inhibition at 10 µM', 11.1),
  ('O=C1CN2Cc3c(ccc(Cl)c3Cl)N=C2N1', 'inhibition at 10 µM', -15.2),
  ('CCCCCCCCCCCCN1CCCCCC1=O', 'inhibition at 10 µM', -2.3),
  ('COc1cn(-c2ccc(-n3cccn3)cc2F)nc(-c2ccnn2-c2ccccc2)c1=O', 'inhibition at 10 µM', 2.3),
  ('O=C1C(c2[nH]c3ccc(S(=O)(=O)O)cc3c2O)=Nc2ccc(S(=O)(=O)O)cc21', 'inhibition at 10 µM', 23.9);

---

Target: UniProtKB Q06187
Assay: biochemical
Conditions: read-out: BTK inhibition (%), 0.75 uM BTK, […] probe 3l, 15 min preincubation
Quick reference: inhibition at 10 µM of the listed items.
reported metric: inhibition at 10 µM (%)

INSERT INTO results (compound, reported_metric, recorded_value) VALUES
  ('Cc1c(Cl)cccc1Nc1ccccc1C(=O)O', 'inhibition at 10 µM', -6.2),
  ('CC1(C)O[C@@H]2C[C@H]3[C@@H]4CCC5=CC(=O)C=C[C@]5(C)[C@H]4[C@@H](O)C[C@]3(C)[C@]2(C(=O)CO)O1', 'inhibition at 10 µM', 4.8),
  ('O=C(c1ccc(F)cc1)N1CCC[C@H](c2nc(-c3ccc(F)cc3)no2)C1', 'inhibition at 10 µM', -13.2),
  ('CCC(=O)O[C@@H]1CC(=O)O[C@H](C)C/C=C/C=C/[C@H](O)[C@H](C)C[C@H](CC=O)[C@H](O[C@@H]2O[C@H](C)[C@@H](O[C@H]3C[C@@](C)(O)[C@@H](OC(=O)CC)[C@H](C)O3)[C@H](N(C)C)[C@H]2O)[C@H]1OC', 'inhibition at 10 µM', 6.2),
  ('OCCOCCN1CCN(C2=Nc3ccccc3Sc3ccccc32)CC1', 'inhibition at 10 µM', -4.7),
  ('C=CC(=O)N[C@H]1CCOC[C@H]1Nc1ncc2cc(-c3c(Cl)c(OC)cc(OC)c3Cl)ccc2n1', 'inhibition at 10 µM', 22.1),
  ('CCc1cc2c(cc1N1CCC(N3CCOCC3)CC1)C(C)(C)c1[nH]c3cc(C#N)ccc3c1C2=O', 'inhibition at 10 µM', 11.7),
  ('CN1CCN2c3ncccc3Cc3ccccc3C2C1 (stereo not drawn)', 'inhibition at 10 µM', 12.5),
  ('Cc1cc2c(C(=O)NC[C@H](C)c3ccccc3)c(O)c(O)cc2c(O)c1-c1c(C)cc2c(C(=O)NC[C@H](C)c3ccccc3)c(O)c(O)cc2c1O', 'inhibition at 10 µM', 113),
  ('Cc1c(Nc2ncccc2C(=O)O)cccc1C(F)(F)F', 'inhibition at 10 µM', -9),
  ('NC(N)=NCCCC[C@H](N)C(=O)O', 'inhibition at 10 µM', -8.5),
  ('CCCc1cc(C)[nH]c(=O)c1CNC(=O)c1cc(-c2ccc(N3CCN(C)CC3)nc2)nc2c1cnn2C(C)C', 'inhibition at 10 µM', 15.4),
  ('CC(=O)N[C@@H]1[C@@H](O[C@@H]2O[C@H](C(=O)O)[C@@H](O)[C@H](O)[C@H]2O)[C@@H](O)[C@@H](OS(=O)(=O)O)O[C@H]1O', 'inhibition at 10 µM', -22.1),
  ('Nc1ccc(/C=C/C(=O)NCc2cc3cc(-c4ccc(C(=O)N5CCC(F)(F)CC5)cc4)cc(-c4ccc(F)cc4)c3o2)cn1', 'inhibition at 10 µM', 31.7),
  ('C[C@@H]1C/C=C/C=C/C=C/C=C/[C@H](O[C@@H]2O[C@H](C)[C@@H](O)[C@H](N)[C@@H]2O)C[C@@H]2O[C@](O)(C[C@@H](O)C[C@H]3O[C@@H]3/C=C/C(=O)O1)C[C@H](O)[C@H]2C(=O)O', 'inhibition at 10 µM', -22.6),
  ('O=C(O)[C@@H]1CCCN1', 'inhibition at 10 µM', -24.7),
  ('Cc1[nH]c(/C=C2\C(=O)Nc3ccccc32)c(C)c1CCC(=O)O', 'inhibition at 10 µM', 52.4),
  ('COc1ccc2cc1Oc1ccc(cc1)C[C@H]1c3cc(c(OC)cc3CCN1C)Oc1c(O)c(OC)cc3c1[C@H](C2)N(C)CC3', 'inhibition at 10 µM', 27.2),
  ('COc1cc2c(cc1O)C[C@H]1c3c(cc(O)c(OC)c3-2)CCN1C', 'inhibition at 10 µM', 6.9),
  ('CCC(CC)CC1(C(=O)Nc2ccccc2SC(=O)C(C)C)CCCCC1', 'inhibition at 10 µM', 6.2),
  ('CC12CC(c3ccoc3)OC13CC(OC3=O)C1C3CC(CC12)OC3=O (stereo not drawn)', 'inhibition at 10 µM', 2.3),
  ('CCOc1cc(N2CCC(O)CC2)ccc1Nc1ncc2c(n1)N(C)c1ccccc1C(=O)N2C', 'inhibition at 10 µM', -6.2),
  ('NC(=O)c1cn(Cc2c(F)cccc2F)nn1', 'inhibition at 10 µM', -17.9),
  ('COc1ccccc1OCCNCC(O)COc1cccc2[nH]c3ccccc3c12 (stereo not drawn)', 'inhibition at 10 µM', -7.8),
  ('COc1cccc(-c2c(C)n(Cc3c(F)cccc3C(F)(F)F)c(=O)n(C[C@H](NCCCC(=O)O)c3ccccc3)c2=O)c1F', 'inhibition at 10 µM', -7),
  ('CCc1cccc(CC)c1NC(=O)N1Cc2[nH]nc(NC(=O)c3ccc(N4CCN(C)CC4)cc3)c2C1', 'inhibition at 10 µM', 65.5),
  ('O=C(Nc1ccccc1)N1CCN(c2nc(-c3ccccc3)ns2)CC1', 'inhibition at 10 µM', -3.9),
  ('N#Cc1c(Oc2ccc(F)c(NC(=O)Cc3cccc(C(F)(F)F)c3)c2)ccc2nc(NC(=O)C3CC3)sc12', 'inhibition at 10 µM', 37.9),
  ('C[C@]12CC[C@@H]3c4ccc(O)cc4C[C@@H](CCCCCCCCC[S+]([O-])CCCC(F)(F)C(F)(F)F)[C@H]3[C@@H]1CC[C@@H]2O (stereo partly drawn)', 'inhibition at 10 µM', 15.6),
  ('C[C@]12CC[C@H](O)CC1=CC[C@@H]1[C@@H]2CC[C@]2(C)C(=O)CC[C@@H]12', 'inhibition at 10 µM', -24.9);

---

Molecular target: BTK (Homo sapiens)
Experiment: biochemical
Settings: read-out: BTK inhibition (%), 0.75 uM BTK, […] probe 3l, 15 min preincubation
reported metric: inhibition at 10 µM (%)

INSERT INTO measurements (smiles_input, tested_system, unit_of_measurement, recorded_value) VALUES
  ('CN(C)c1cc(NC(=O)CNC(C)(C)C)c(O)c2c1C[C@H]1C[C@H]3[C@H](N(C)C)C(=O)C(C(N)=O)=C(O)[C@@]3(O)C(=O)C1=C2O', 'BTK (Homo sapiens)', '%', 32.7),
  ('CCOC(=O)C1=C(C)NC(C)=C(C(=O)OCC)C1', 'BTK (Homo sapiens)', '%', 10.8),
  ('Cc1cc(Nc2ncnc3ccc(-c4ccc(CNCCS(C)(=O)=O)o4)cc23)ccc1Oc1ccn2ncnc2c1', 'BTK (Homo sapiens)', '%', -21.4),
  ('COc1cc(N)c(Cl)cc1C(=O)N[C@H]1CCN(CCCOc2ccc(F)cc2)C[C@H]1OC', 'BTK (Homo sapiens)', '%', 13.2),
  ('CN(C)CCc1c[nH]c2ccc(Cn3cncn3)cc12', 'BTK (Homo sapiens)', '%', -3.1),
  ('COc1ccc(S(=O)(=O)N(CCO)c2ccccc2CN(C)C/C=C/c2ccc(Cl)cc2)cc1', 'BTK (Homo sapiens)', '%', 70.3),
  ('Cc1cc(C)nc(NS(=O)(=O)c2ccc(NC(=S)NC(=O)COc3ccc(Br)cc3Cl)cc2)n1', 'BTK (Homo sapiens)', '%', 59.5),
  ('C=C[C@H]1CN2CC[C@H]1C[C@@H]2[C@@H](O)c1ccnc2ccccc12', 'BTK (Homo sapiens)', '%', -17.1);
